Biological target: human NTCP (Homo sapiens)
Sequence (Q14973 1-349): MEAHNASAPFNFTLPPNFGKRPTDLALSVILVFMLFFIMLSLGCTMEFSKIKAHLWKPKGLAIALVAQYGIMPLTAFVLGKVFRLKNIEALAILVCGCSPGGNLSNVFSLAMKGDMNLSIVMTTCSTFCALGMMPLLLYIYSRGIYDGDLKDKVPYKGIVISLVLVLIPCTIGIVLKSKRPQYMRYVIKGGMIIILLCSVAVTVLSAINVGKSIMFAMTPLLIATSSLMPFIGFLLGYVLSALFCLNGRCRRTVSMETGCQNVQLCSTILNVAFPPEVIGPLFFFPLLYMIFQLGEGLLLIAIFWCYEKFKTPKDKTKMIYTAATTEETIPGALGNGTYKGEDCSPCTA
Assay: Uptake study on NTCP-HEK293 cells
Format: cell-based
Details: uptake in presence versus absence of sodium, NTCP-HEK293 cells
Assay endpoint: NTCP substrate (in words)

Compound	Result
C[C@H](CCC(=O)O)[C@H]1CC[C@H]2[C@@H]3[C@@H](O)C[C@@H]4C[C@H](O)CC[C@]4(C)[C@H]3CC[C@]12C [UDCA, ursodeoxycholate]	substrates
C[C@H](CCC(=O)O)[C@H]1CC[C@H]2[C@@H]3[C@H](O)C[C@@H]4C[C@H](O)CC[C@]4(C)[C@H]3C[C@H](O)[C@]12C [CA, cholate]	substrates
